System: P. falciparum 3D7 parasites
Assay: Metabolomic profiling of compound-treated parasites (LC/MS)
Type: cell-based
Parameter: Metabolite data: N-Acetyl-Glutamate. Scope: all listed entries.
Reply briefly: the number, and no unit.

Query block: Returns the measured Metabolite data: N-Acetyl-Glutamate for the input compound. Input: COc1cc2[nH]c(C)c(-c3ccc(Oc4ccc(OC(F)(F)F)cc4)cc3)c(=O)c2cc1Cl
Result block: 0.1479

Query block: Returns the measured Metabolite data: N-Acetyl-Glutamate for the input compound. Input: CCc1nc(N)nc(N)c1-c1ccc(Cl)cc1
Result block: 0.1671

Query block: Returns the measured Metabolite data: N-Acetyl-Glutamate for the input compound. Input: CC1(C)N=C(N)N=C(N)N1OCCCOc1cc(Cl)c(Cl)cc1Cl
Result block: 0.09

Further cases:
Query block: Returns the measured Metabolite data: N-Acetyl-Glutamate for the input compound. Input: Cc1cc(Nc2ccc3ccccc3c2)n2ncnc2n1
Result block: -0.2257

Query block: Returns the measured Metabolite data: N-Acetyl-Glutamate for the input compound. Input: CCN(CC)S(=O)(=O)c1ccc(Cl)c(C(=O)Nc2ccc3nc(C)sc3c2)c1
Result block: -0.6054

----------
Parameter: Metabolite data: methionine. Scope: all listed entries.
Tested on: P. falciparum 3D7 parasites
Assay: Metabolomic profiling of compound-treated parasites (LC/MS)
Format: cell-based

Examples with their reported Metabolite data: methionine follow.
Query block: API: value(readout=Metabolite data: methionine, system=P. falciparum 3D7 parasites) for record Cc1cc(Nc2ccc3ccccc3c2)n2ncnc2n1 [DSM1]
Result block: 0

Query block: API: value(readout=Metabolite data: methionine, system=P. falciparum 3D7 parasites) for record C[C@H]1Cc2c([nH]c3cc(Cl)c(F)cc23)[C@@]2(N1)C(=O)Nc1ccc(Cl)cc12 [NITD609]
Result block: 0

Query block: API: value(readout=Metabolite data: methionine, system=P. falciparum 3D7 parasites) for record CC1(C)N=C(N)N=C(N)N1OCCCOc1cc(Cl)c(Cl)cc1Cl [WR99210]
Result block: 0

Further cases:
Query block: API: value(readout=Metabolite data: methionine, system=P. falciparum 3D7 parasites) for record O=C(NNC(=O)c1csnn1)c1ccc(Cl)cc1 [MMV084978-1]
Result block: 0.1423

Query block: API: value(readout=Metabolite data: methionine, system=P. falciparum 3D7 parasites) for record CCc1nc(N)nc(N)c1-c1ccc(Cl)cc1 [Pyrimethamine]
Result block: 0

Query block: API: value(readout=Metabolite data: methionine, system=P. falciparum 3D7 parasites) for record O=C1C(O)=C([C@H]2CC[C@H](c3ccc(Cl)cc3)CC2)C(=O)c2ccccc21 [Atovaquone, reference compound]
Result block: 0

Query block: API: value(readout=Metabolite data: methionine, system=P. falciparum 3D7 parasites) for record CCN(CC)S(=O)(=O)c1ccc(Cl)c(C(=O)Nc2ccc3nc(C)sc3c2)c1 [MMV019721-1]
Result block: 0.07829

Query block: API: value(readout=Metabolite data: methionine, system=P. falciparum 3D7 parasites) for record COc1cc2[nH]c(C)c(-c3ccc(Oc4ccc(OC(F)(F)F)cc4)cc3)c(=O)c2cc1Cl [ELQ-300]
Result block: 0

Query block: API: value(readout=Metabolite data: methionine, system=P. falciparum 3D7 parasites) for record N#Cc1cc(NC(=O)[C@H]2c3ccccc3C(=O)N(CC(F)(F)F)[C@@H]2c2cccnc2)ccc1F [SJ733]
Result block: 0
